Origin of values: the Immune Epitope Database (IEDB)

Target: HLA-A*24:02
Assay: IEDB peptide-MHC binding, cellular MHC/competitive/fluorescence; bounds were set here for any values at or beyond the usual limits of such assays
Conditions: source organism: Human herpesvirus 5 strain AD169
pIC50: −log10 of the molar value.
Readout name: pIC50

Ask | May I ask what pIC50 has been recorded for FFFDIDLLL ?
Reply | ≤ 3.48

###

Molecular target: HLA-B*40:02
Test: IEDB peptide-MHC binding, purified MHC/competitive/radioactivity; filed as Kd, often an IC50 or EC50 that approximates it; bounds were set here for any values at or beyond the usual limits of such assays
Conditions: source organism: Hepatitis C virus (isolate 1)
pKd: −log10 of the molar value.
Readout name: pKd

Ask | May I ask what pKd has been recorded for HPNIEEVAL ?
Reply | ≤ 4.11
